- assaySystem: TPM3-TRKA fusion protein (Homo sapiens, UniProt P04629)
- Construct: The resulted chimeric proteins always retain the kinase domain of TRK proteins; TPM3 (fusion partner, N-terminal part of tropomyosin alpha-3, P06753); endogenous in cells; host or cells: KM12 colon cancer cells; the other entry of the earlier key: TPM3 (P06753, Tropomyosin alpha-3 chain)
- Sequence (P04629 with tags, fused parts or gaps): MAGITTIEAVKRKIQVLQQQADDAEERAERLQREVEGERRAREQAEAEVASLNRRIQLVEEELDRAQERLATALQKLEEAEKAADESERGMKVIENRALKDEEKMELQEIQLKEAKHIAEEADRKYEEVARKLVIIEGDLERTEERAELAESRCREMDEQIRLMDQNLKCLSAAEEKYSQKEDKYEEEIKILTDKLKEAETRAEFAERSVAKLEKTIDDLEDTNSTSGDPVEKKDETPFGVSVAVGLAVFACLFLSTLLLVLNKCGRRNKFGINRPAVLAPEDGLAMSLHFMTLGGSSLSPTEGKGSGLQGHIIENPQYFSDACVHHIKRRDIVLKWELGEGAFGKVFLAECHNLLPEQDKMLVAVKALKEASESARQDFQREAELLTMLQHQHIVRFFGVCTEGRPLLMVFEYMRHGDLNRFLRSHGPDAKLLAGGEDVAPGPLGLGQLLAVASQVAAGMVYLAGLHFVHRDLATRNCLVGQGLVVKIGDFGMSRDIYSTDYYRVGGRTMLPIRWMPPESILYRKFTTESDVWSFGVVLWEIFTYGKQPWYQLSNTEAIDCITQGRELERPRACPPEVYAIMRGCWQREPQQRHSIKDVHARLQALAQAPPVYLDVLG
- assayInfo: TPM3-TRKA fusion protein levels in KM12 cells (Western blot)
- Format: cell-based
- experimentalParameters: 16 h; TPM3-TRKA degradation in KM12 cells at 10 nM compound, category of percentage degradation; read-out: Degradation (at 10 nM)
- Experimental: KM12 cells were treated with DMSO or indicated compounds at 100 nM for 16 hours. KM12 cells were treated with DMSO or indicated compounds at 0. 1 nM, 1 nM or 10 nM for 16 hours. […] Cultured cells were washed with cold PBS once and lysed in cold RIPA buffer supplemented with protease inhibitors and phosphatase inhibitors (Beyotime Biotechnology). […] Total protein concentrations in the lysates were determined by BCA assays (Beyotime Biotechnology). […]
Each entry below lists one item and its recorded percent degradation of TPM3-TRKA protein at 0.01 µM value.
endpointName: percent degradation of TPM3-TRKA protein at 0.01 µM

{"compound": "Cn1c(=O)n(C2CCC(=O)NC2=O)c2cccc(NCCCN3CCN(c4ccc(C(=O)Nc5n[nH]c6ccc(Cc7cc(F)cc(F)c7)cc56)c(NC5CCOCC5)c4)CC3)c21 (stereo not drawn) [TR-315]", "experimentalResult": "> 80%"}
{"compound": "O=C1CCC(N2Cc3ccc(N4CC(CN5CCN(c6cccc(-c7cnc8ccc(N9CCC[C@@H]9c9cccc(F)c9)nn78)n6)CC5)C4)cc3C2=O)C(=O)N1 (stereo partly drawn) [TR-317]", "experimentalResult": "> 80%"}
{"compound": "O=C1CCC(N2C(=O)c3ccc(NCCN4CCN(c5ccc(C(=O)Nc6n[nH]c7ccc(Cc8cc(F)cc(F)c8)cc67)c(NC6CCOCC6)c5)CC4)cc3C2=O)C(=O)N1 (stereo not drawn) [TR-232]", "experimentalResult": "> 80%"}
{"compound": "O=C1CCC(N2C(=O)c3cccc(NCCCCC(=O)N4CCN(c5ccc(C(=O)Nc6n[nH]c7ccc(Cc8cc(F)cc(F)c8)cc67)c(NC6CCOCC6)c5)CC4)c3C2=O)C(=O)N1 (stereo not drawn) [CPD-050]", "experimentalResult": "> 80%"}
{"compound": "O=C1CCC(N2C(=O)c3ccc(NCCN4CCN(c5ccc(C(=O)Nc6n[nH]c7ccc(Cc8cc(F)cc(F)c8)cc67)c(NCCF)c5)CC4)cc3C2=O)C(=O)N1 (stereo not drawn) [TR-268]", "experimentalResult": "> 80%"}
{"compound": "O=C1CCC(N2C[C@H](c3cccc(CN4CCN(c5cccc(-c6cnc7ccc(N8CCC[C@@H]8c8cccc(F)c8)nn67)n5)CC4)c3)OC2=O)C(=O)N1 (stereo partly drawn) [TR-235]", "experimentalResult": "50 to 80%"}

----------
Measured log10 IC50 values are reported for all entries that follow.
- System: KM12 cells
- assayInfo: KM12 cell viability (CellTiter-Glo)
- Assay type: cell-based
- experimentalParameters: Homo sapiens, KM12, 72 h
endpointName: log10 IC50 (log10 of the value in nM)

{"molecule": "Cn1c(=O)n(C2CCC(=O)NC2=O)c2cccc(CCCCN3CCN(c4cccc(-c5cnc6ccc(N7CCC[C@@H]7c7cccc(F)c7)nn56)n4)CC3)c21 (stereo partly shown)", "assaySystem": "KM12 cells", "endpointName": "log10 IC50", "experimentalResult": 0.79}
{"molecule": "O=C1CCC(N2C(=O)c3ccc(CN4CC(N5CCN(c6ccc(C(=O)Nc7n[nH]c8ccc(Cc9cc(F)cc(F)c9)cc78)c(NCCF)c6)CC5)C4)cc3C2=O)C(=O)N1 (stereo not shown)", "assaySystem": "KM12 cells", "endpointName": "log10 IC50", "experimentalResult": 1.68}
{"molecule": "O=C1CCC(N2C(=O)c3ccc(N4CCC(N5CCN(c6ccc(C(=O)Nc7n[nH]c8ccc(Cc9cc(F)cc(F)c9)cc78)c(NC7CCOCC7)c6)CC5)CC4)cc3C2=O)C(=O)N1 (stereo not shown)", "assaySystem": "KM12 cells", "endpointName": "log10 IC50", "experimentalResult": 0.63}
{"molecule": "O=C1CCC(N2C(=O)c3ccc(CN4CC(N5CCN(c6ccc(C(=O)Nc7n[nH]c8ccc(Cc9cc(F)cc(F)c9)cc78)cc6)CC5)C4)cc3C2=O)C(=O)N1 (stereo not shown)", "assaySystem": "KM12 cells", "endpointName": "log10 IC50", "experimentalResult": 2.56}
{"molecule": "Cn1c(=O)n(C2CCC(=O)NC2=O)c2ccc(NCCN3CCN(c4ccc(C(=O)Nc5n[nH]c6ccc(Cc7cc(F)cc(F)c7)cc56)c(NC5CCOCC5)c4)CC3)cc21 (stereo not shown)", "assaySystem": "KM12 cells", "endpointName": "log10 IC50", "experimentalResult": 0.11}
{"molecule": "Cn1c(=O)n(C2CCC(=O)NC2=O)c2cccc(NCCN3CCN(c4ccc(C(=O)Nc5n[nH]c6ccc(Cc7cc(F)cc(F)c7)cc56)c(NC5CCOCC5)c4)CC3)c21 (stereo not shown)", "assaySystem": "KM12 cells", "endpointName": "log10 IC50", "experimentalResult": 1.11}
{"molecule": "COc1ccc(COc2ccc(Cn3c(N)nc4cc(-c5cnn(CC(=O)NCCNc6cccc7c6C(=O)N(C6CCC(=O)NC6=O)C7=O)c5)cnc43)cc2OC)cc1 (stereo not shown)", "assaySystem": "KM12 cells", "endpointName": "log10 IC50", "experimentalResult": 1.56}

----------
Reported values of percent degradation of TPM3-TRKA protein at 0.01 µM for individual entries
- assaySystem: TPM3-TRKA fusion protein (Homo sapiens)
- Construct: The resulted chimeric proteins always retain the kinase domain of TRK proteins; TPM3 (fusion partner, N-terminal part of tropomyosin alpha-3, P06753); endogenous in cells; host or cells: KM12 colon cancer cells; the other entry of the earlier key: TPM3 (P06753, Tropomyosin alpha-3 chain)
- assayInfo: TPM3-TRKA fusion protein levels in KM12 cells (Western blot)
- Type: cell-based
- experimentalParameters: 16 h; TPM3-TRKA degradation in KM12 cells at 10 nM compound, category of percentage degradation; read-out: Degradation (at 10 nM)
endpointName: percent degradation of TPM3-TRKA protein at 0.01 µM

{"compound": "Cn1c(=O)n(C2CCC(=O)NC2=O)c2cccc(C#CCCN3CCN(c4ccc(C(=O)Nc5n[nH]c6ccc(Cc7cc(F)cc(F)c7)cc56)c(NC5CCOCC5)c4)CC3)c21 (centres unmarked) [TR-306]", "experimentalResult": "> 80%"}
{"compound": "O=C1CCC(N2Cc3cc(C#CCN4CCN(c5cccc(-c6cnc7ccc(N8CCC[C@@H]8c8cccc(F)c8)nn67)n5)CC4)ccc3C2=O)C(=O)N1 (some centres unmarked) [TR-188]", "experimentalResult": "> 80%"}
{"compound": "O=C1CCC(N2Cc3cc(CCCN4CCN(c5cccc(-c6cnc7ccc(N8CCC[C@@H]8c8cccc(F)c8)nn67)n5)CC4)ccc3C2=O)C(=O)N1 (some centres unmarked) [TR-186]", "experimentalResult": "> 80%"}
{"compound": "O=C1CCC(N2C(=O)c3cccc(NCCOCCOCCC(=O)N4CCN(c5ccc(C(=O)Nc6n[nH]c7ccc(Cc8cc(F)cc(F)c8)cc67)c(NC6CCOCC6)c5)CC4)c3C2=O)C(=O)N1 (centres unmarked) [CPD-032]", "experimentalResult": "> 80%"}
{"compound": "O=C1CCC(N2C[C@H](c3cccc(C#CCN4CCN(c5cccc(-c6cnc7ccc(N8CCC[C@@H]8c8cccc(F)c8)nn67)n5)CC4)c3)OC2=O)C(=O)N1 (some centres unmarked) [TR-223]", "experimentalResult": "50 to 80%"}
{"compound": "O=C(CN1CCN(c2ccc(C(=O)Nc3n[nH]c4ccc(Cc5cc(F)cc(F)c5)cc34)c(NC3CCOCC3)c2)CC1)NCCOCCOCCOCCOCCOCCNc1cccc2c1C(=O)N(C1CCC(=O)NC1=O)C2=O (centres unmarked) [CPD-065]", "experimentalResult": "> 80%"}
{"compound": "Cn1c(=O)n(C2CCC(=O)NC2=O)c2ccc(NCCN3CCN(c4cccc(-c5cnc6ccc(N7CCC[C@@H]7c7cccc(F)c7)nn56)n4)CC3)cc21 (some centres unmarked) [TR-220]", "experimentalResult": "> 80%"}
{"compound": "Cn1c(=O)n(C2CCC(=O)NC2=O)c2cccc(N3CC(CN4CCN(c5cccc(-c6cnc7ccc(N8CCC[C@@H]8c8cccc(F)c8)nn67)n5)CC4)C3)c21 (some centres unmarked) [TR-258]", "experimentalResult": "> 80%"}
{"compound": "O=C(CN1CCN(c2cccc(-c3cnc4ccc(N5CCC[C@@H]5c5cccc(F)c5)nn34)n2)CC1)NCCCCCCNc1ccc2c(c1)C(=O)N(C1CCC(=O)NC1=O)C2=O (some centres unmarked) [TR-128]", "experimentalResult": "> 80%"}
{"compound": "Cc1ncsc1-c1ccc(CNC(=O)[C@@H]2C[C@@H](O)CN2C(=O)[C@@H](NC(=O)CCCCCCC(=O)N2CCN(c3cccc(-c4cnc5ccc(N6CCC[C@@H]6c6cccc(F)c6)nn45)n3)CC2)C(C)(C)C)cc1 [CPD-029]", "experimentalResult": "50 to 80%"}
{"compound": "O=C1CCC(N2C(=O)c3ccc(N4CC(CN5CCN(c6cccc(-c7cnc8ccc(N9CCC[C@@H]9c9cccc(F)c9)nn78)n6)CC5)C4)cc3C2=O)C(=O)N1 (some centres unmarked) [TR-198]", "experimentalResult": "> 80%"}
